Below is a list of entries, each paired with its recorded EC50 value.
Target: human F508del-CFTR (Homo sapiens, UniProt P13569, DEL508-508)
Sequence (P13569 with tags, fused parts or gaps DEL508-508): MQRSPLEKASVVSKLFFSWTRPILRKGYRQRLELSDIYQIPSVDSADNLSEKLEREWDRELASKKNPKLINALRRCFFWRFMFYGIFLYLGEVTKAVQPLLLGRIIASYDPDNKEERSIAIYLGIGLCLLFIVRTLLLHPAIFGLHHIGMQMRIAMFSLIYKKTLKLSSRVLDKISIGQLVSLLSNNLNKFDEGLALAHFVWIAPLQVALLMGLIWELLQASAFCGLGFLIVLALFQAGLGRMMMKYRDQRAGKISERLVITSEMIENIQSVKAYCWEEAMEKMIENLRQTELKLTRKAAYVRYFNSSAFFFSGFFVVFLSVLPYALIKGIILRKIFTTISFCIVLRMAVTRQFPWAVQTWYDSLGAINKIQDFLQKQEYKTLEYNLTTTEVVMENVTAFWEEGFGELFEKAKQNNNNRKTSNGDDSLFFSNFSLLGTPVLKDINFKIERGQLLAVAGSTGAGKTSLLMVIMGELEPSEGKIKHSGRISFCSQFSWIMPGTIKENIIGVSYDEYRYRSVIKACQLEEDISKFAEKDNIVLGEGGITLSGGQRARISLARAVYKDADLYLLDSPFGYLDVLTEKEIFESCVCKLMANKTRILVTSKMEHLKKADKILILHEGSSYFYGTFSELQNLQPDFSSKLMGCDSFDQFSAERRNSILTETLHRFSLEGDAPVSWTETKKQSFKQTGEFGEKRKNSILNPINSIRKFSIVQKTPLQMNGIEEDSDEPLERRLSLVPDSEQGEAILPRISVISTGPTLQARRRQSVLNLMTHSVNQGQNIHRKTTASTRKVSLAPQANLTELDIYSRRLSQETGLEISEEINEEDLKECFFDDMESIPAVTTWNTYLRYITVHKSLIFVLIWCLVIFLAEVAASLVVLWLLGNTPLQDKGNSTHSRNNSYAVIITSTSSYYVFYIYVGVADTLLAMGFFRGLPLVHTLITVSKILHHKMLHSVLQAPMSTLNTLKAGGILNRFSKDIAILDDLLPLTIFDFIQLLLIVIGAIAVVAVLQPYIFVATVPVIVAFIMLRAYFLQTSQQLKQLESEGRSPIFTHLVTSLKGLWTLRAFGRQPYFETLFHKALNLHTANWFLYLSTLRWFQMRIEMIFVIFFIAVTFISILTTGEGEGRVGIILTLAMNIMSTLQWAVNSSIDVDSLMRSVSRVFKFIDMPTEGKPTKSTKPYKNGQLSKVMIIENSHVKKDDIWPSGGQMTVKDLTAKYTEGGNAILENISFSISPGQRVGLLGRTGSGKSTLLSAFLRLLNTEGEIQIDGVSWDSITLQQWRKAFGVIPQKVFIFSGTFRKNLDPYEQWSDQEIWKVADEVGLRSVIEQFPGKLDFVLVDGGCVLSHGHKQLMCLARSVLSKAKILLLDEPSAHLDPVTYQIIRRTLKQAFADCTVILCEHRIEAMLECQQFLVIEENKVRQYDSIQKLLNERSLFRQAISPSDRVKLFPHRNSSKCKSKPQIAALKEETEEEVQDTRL
Test: F508del-CFTR cell surface expression (corrector activity), DiscoveRx ß-galactosidase complementation chemiluminescence assay in recombinant U2OS cell line
Settings: EC50, F508del-CFTR cell surface expression, U2OS cells, 16h compound incubation; geomean values
Provide only the numeric value, understood in nM.

Answered cases to consult:
{"columns": ["chem.smiles", "endpoint", "unit.label", "meas.value"],
 "data": [
  ["Cc1cc(CCNC(=O)[C@@H]2CC(=O)N(C)[C@@H](CC(C)C)C(=O)N(C)[C@H](CCOCc3ccccc3)C(=O)N[C@H](Cc3ccccc3)COc3cnc4ccccc4c3C(=O)N2)on1", "EC50", "nM", 53],
  ["COc1cccc(CCNC(=O)[C@@H]2CC(=O)N(C)[C@@H](CC(C)C)C(=O)N3CCCC[C@@H]3C(=O)N[C@H](Cc3ccccc3)COc3ccc4ccccc4c3C(=O)N2)c1", "EC50", "nM", 205],
  ["Cc1cc(CCNC(=O)[C@@H]2CC(=O)N(C)[C@@H](CC(C)C)C(=O)N3CCCC[C@@H]3C(=O)N[C@H](Cc3ccccc3)COc3ccc4c(cnn4C)c3C(=O)N2)on1", "EC50", "nM", 606]
]}

**Query** Under human F508del-CFTR (Homo sapiens, UniProt P13569, DEL508-508): EC50 value of CC(C)C[C@H]1C(=O)N(C)[C@H](C)C(=O)N[C@H](Cc2ccccc2)COc2cnc3ccccc3c2C(=O)N[C@H](C(=O)NCCc2cc(C3CC3)no2)CC(=O)N1C ?
**Result** 308

* * *

Biological target: human F508del-CFTR (Homo sapiens, UniProt P13569, DEL508-508)
Assay: F508del-CFTR cell surface expression (corrector activity), DiscoveRx ß-galactosidase complementation chemiluminescence assay in recombinant U2OS cell line
Conditions: EC50, F508del-CFTR cell surface expression, U2OS cells, 16h compound incubation; geomean values
Decide using EC50 alone. Strictly below 200 nM: Yes. Equal to or above 200 nM: No.

Below are worked cases with known answers.
{"columns": ["chem.smiles", "discrete.label"],
 "data": [
  ["COc1cccc(CCNC(=O)[C@@H]2CC(=O)N(C)[C@@H](CC(C)C)C(=O)N3CCN([S@](=O)(=NC(=O)OC(C)(C)C)c4ccccc4)C[C@@H]3C(=O)N[C@H](Cc3ccccc3)COc3ccc4ccccc4c3C(=O)N2)c1", "Yes"],
  ["CC(C)C[C@H]1C(=O)N(C)[C@H](Cc2nc(-c3ccc(F)cn3)no2)C(=O)N[C@H](Cc2ccccc2)COc2ccc3ncc(F)cc3c2C(=O)N[C@H](C(=O)NCCc2noc(C3CC3)n2)CC(=O)N1C", "Yes"],
  ["COc1cccc(CCNC(=O)[C@@H]2CC(=O)N(C)[C@@H](CC(C)C)C(=O)N3CCN(CCO)C[C@@H]3C(=O)N[C@H](Cc3ccccc3)COc3ccc4ccccc4c3C(=O)N2)c1", "No"]
]}

**Query** Problem: For the molecule CO[C@H]1C[C@]2(C1)C(=O)N[C@H](Cc1ccccc1)COc1cnc3ccccc3c1C(=O)N[C@H](C(=O)NCCc1ccc(-n3nccn3)cc1)CC(=O)N(C)[C@@H](CC(C)C)C(=O)N2C , is EC50 under 200 nM?
**Result** No

**Query** And the next one, COc1cccc(CCNC(=O)[C@@H]2CC(=O)N(C)[C@@H](CC(C)C)C(=O)N(C)CC(=O)N[C@H](Cc3ccccc3)COc3nc4ccccn4c3C(=O)N2)c1 ?
**Result** No

**Query** Note, next up: COc1cccc(CCNC(=O)[C@@H]2CC(=O)N(C)[C@@H](CC(C)C)C(=O)N3CCN(C)C[C@@H]3C(=O)N[C@H](Cc3ccccc3)COc3cnc4ccccc4c3C(=O)N2)c1
**Result** No

**Query** # iterate: COc1cccc(CCNC(=O)[C@@H]2CC(=O)N(C)[C@@H](CC(C)C)C(=O)N3CCN(S(=O)(=O)Cc4ccccc4)C[C@@H]3C(=O)N[C@H](Cc3ccccc3)COc3ccc4ccccc4c3C(=O)N2)c1
**Result** Yes

**Query** Item: Cc1nc2ccc3c(c2o1)C(=O)N[C@H](C(=O)NCCc1cccc(OC(F)F)c1)CC(=O)N(C)[C@@H](CC(C)C)C(=O)N1CCN(CC2CC2)C[C@@H]1C(=O)N[C@H](Cc1ccccc1)CO3
**Result** No

**Query** Now consider COc1cc(CCNC(=O)[C@@H]2CC(=O)N(C)[C@@H](CC(C)C)C(=O)N(C)C3(CC3)C(=O)N[C@H](Cc3ccccc3)COc3cnc4ccccc4c3C(=O)N2)on1 .
**Result** No

**Query** Quick one: COc1cc2c(cc1OC)C(=O)N[C@H](C(=O)NCCc1ccc3c(c1)OCO3)CC(=O)N(C)[C@@H](CC(C)C)C(=O)N(CCC1CCCCC1)CC(=O)N[C@H](Cc1ccccc1)CO2
**Result** Yes

**Query** Also, COCCN1CCN2C(=O)[C@H](CC(C)C)N(C)C(=O)C[C@@H](C(=O)NCCc3cccc(OC(F)F)c3)NC(=O)c3c(cnc4ccccc34)OC[C@@H](Cc3ccccc3)NC(=O)[C@H]2C1 please.
**Result** No

**Query** // query: Cc1noc2c3c(ccc12)OC[C@@H](Cc1ccccc1)NC(=O)[C@@H]1CCCCN1C(=O)[C@H](CC(C)C)N(C)C(=O)C[C@@H](C(=O)NCCc1c(F)cccc1F)NC3=O
**Result** No

* * *

Biological target: human F508del-CFTR (Homo sapiens, UniProt P13569, DEL508-508)
Assay: F508del-CFTR cell surface expression (corrector activity), DiscoveRx ß-galactosidase complementation chemiluminescence assay in recombinant U2OS cell line
Conditions: EC50, F508del-CFTR cell surface expression, U2OS cell line, 16h compound incubation; geomean values
endpoint: EC50

{"columns": ["chem.smiles", "meas.value"],
 "data": [
  ["CCc1ccc(CCNC(=O)[C@@H]2CC(=O)N(C)[C@@H](CC(C)C)C(=O)N(C)CC(=O)N[C@H](Cc3ccccc3)COc3cccc(OC)c3C(=O)N2)cc1", "514 nM"],
  ["COc1cc2c(cc1OC)C(=O)N[C@H](C(=O)NCCc1ccc3c(c1)CCCO3)CC(=O)N(C)[C@@H](CC(C)C)C(=O)N(C)CC(=O)N[C@H](Cc1ccccc1)CO2", "816 nM"],
  ["COc1cccc(CCNC(=O)[C@@H]2CC(=O)N(C)[C@@H](CC(C)C)C(=O)N(CCC3CCCCC3)CC(=O)N[C@H](Cc3ccccc3)COc3cc(C)ncc3C(=O)N2)c1", "266 nM"],
  ["CC(C)C[C@H]1C(=O)N(C)CC(=O)N[C@H](Cc2ccccc2)COc2cnc3ccccc3c2C(=O)N[C@H](C(=O)NCCc2ccc3c(c2)OCO3)CC(=O)N1C", "679 nM"],
  ["COc1cccc(CCNC(=O)[C@@H]2CC(=O)N(C)[C@@H](C)C(=O)N(CCC3CCCCC3)CC(=O)N[C@H](Cc3ccccc3)COc3cc(OC)cc(OC)c3C(=O)N2)c1", "365 nM"],
  ["[2H]C([2H])([2H])Oc1cccc2c1C(=O)N[C@H](C(=O)NCCc1ccc3c(c1)OCO3)CC(=O)N(C)[C@@H](CC(C)C)C(=O)N(CCC1CCCCC1)CC(=O)N[C@H](Cc1ccccc1)CO2", "177 nM"]
]}

**Query** Enter reported EC50 observed with human F508del-CFTR (Homo sapiens, UniProt P13569, DEL508-508) for COc1cc(CCNC(=O)[C@@H]2CC(=O)N(C)[C@@H](CC(C)C)C(=O)N(C)C3(CC3)C(=O)N[C@H](Cc3ccccc3)COc3cnc4ccccc4c3C(=O)N2)cc(OC)c1
**Result** 231 nM

**Query** Another: COc1cccc2c1C(=O)N[C@H](C(=O)NCCc1ccc3c(c1)OCO3)CC(=O)N(C)[C@@H](CC(C)C)C(=O)N(C[C@H]1CCCCO1)CC(=O)N[C@H](Cc1ccccc1)CO2
**Result** 533 nM

**Query** Try this compound next: CC(C)C[C@H]1C(=O)N2CCCC[C@@H]2C(=O)N[C@H](Cc2ccccc2)COc2cnc3ccccc3c2C(=O)N[C@H](C(=O)NCCc2ccc(-c3ncccn3)cc2)CC(=O)N1C
**Result** 324 nM

* * *

Recorded Emax, one value per entry.
Target: human F508del-CFTR (Homo sapiens, UniProt P13569, DEL508-508)
Assay: F508del-CFTR cell surface expression (corrector activity), DiscoveRx ß-galactosidase complementation chemiluminescence assay in recombinant U2OS cell line;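 note: U2OS cells co-expressing ProLink-tagged F508del-CFTR and a membrane-anchored enzyme acceptor, where more surface CFTR restores β-galactosidase activity measured by chemiluminescence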
Conditions: U2OS, in relation to the Emax of the corrector lumacaftor (=100%); U2OS cell line, 16h compound incubation; arithmetic mean values
Quick reminder: number only, in %, skip the unit.

Examples from the recorded data:
{"columns": ["chem.smiles", "Emax, %"],
 "data": [
  ["CC(C)C[C@H]1C(=O)N2CCOC[C@@H]2C(=O)N[C@H](Cc2ccccc2)COc2ccc3ccccc3c2C(=O)N[C@H](C(=O)NCCc2ccc3c(c2)OCCO3)CC(=O)N1C", 450],
  ["COc1cc(CCNC(=O)[C@@H]2CC(=O)N(C)[C@@H](CC(C)C)C(=O)N(CCC3CCCCC3)CC(=O)N[C@H](Cc3ccccc3)COc3cccc(OC)c3C(=O)N2)cc(OC)c1", 229]
]}

Next item in the queue.
**Query** Can you share its Emax? I mean this molecule: COc1nccc2c1C(=O)N[C@H](C(=O)NCCc1nc3c(s1)CCC3)CC(=O)N(C)[C@@H](CC(C)C)C(=O)N1CCCC[C@@H]1C(=O)N[C@H](Cc1ccccc1)CO2
**Result** 310
